# experimental details: Water solubility of drug substance
# Type: physicochemical
# test context: heading: water solubility
measurement name: solubility

molecule N#C[C@@H]1CCCN1C(=O)CNC12CC3CC(CC(O)(C3)C1)C2 [vildagliptin] , solubility observed: > 125 mg/mL

Hello, the source for this data is patent US20110086096A1, in case you need it.
